# Study Target: T1, ZIKV-VLP (Native Antigen Inc.) (Zika virus)
# T1 construct: also called Zika VLP; ZVLP
# Experimental Protocol: BLI binning on ZIKV-VLP; 1st mAb: C10
Entries and their response of 2nd mAb

{"Binder": "anti-ZIKV antibody 11-3 (antibody, V domains shown, also called clone 11-3) VH: QEQLVESGGGLVQPEGSLTITCTGSGFSFSSRFYMCWVRQAPGKGLEWIACIYGGSSGSTYYASWAKGRFTISKTSSTTVTLQISSLTAADTATYFCARGGSTAAAGFNLWGPGTLLTVSS VL: DVVMTQTPASVSATVGGTVTIKCQASEDIYNLLAWYQQKPGQPPKLLIYYASTLASGVPSRFKGSGSGTEFTLTISDLECADAATYYCQCNDYGGTYVPNAFGGGTEVVVKG", "response of 2nd mAb": 3.14}
{"Binder": "anti-ZIKV antibody 270-12 (antibody, V domains shown, also called clone 270-12) VH: QAQLEESGGDLVKPEGSLTLTCTASGFSFTDRHYMCWVRQAPGKGLEWIACVYPGSSGSTYYASWARGRFTISKTSSTTVTLRMTSLTAADTATYFCARSSYPDSSGYSYGMDLWGPGTLVTVSS VL: DIVMTQTPASVEAAVGGTVTIKCQASQDINSNLAWYQQKPGQRPKFLMYLTSKLASGVPSRFRGSGSGTQFTLTISDLECADAATYYCQTYYDISNYGYAFGGGTEVVVKG", "response of 2nd mAb": 4.27}
